Data export: Ki values recorded with MCL-1 (Homo sapiens).
Sequence (Q07820 whole entry): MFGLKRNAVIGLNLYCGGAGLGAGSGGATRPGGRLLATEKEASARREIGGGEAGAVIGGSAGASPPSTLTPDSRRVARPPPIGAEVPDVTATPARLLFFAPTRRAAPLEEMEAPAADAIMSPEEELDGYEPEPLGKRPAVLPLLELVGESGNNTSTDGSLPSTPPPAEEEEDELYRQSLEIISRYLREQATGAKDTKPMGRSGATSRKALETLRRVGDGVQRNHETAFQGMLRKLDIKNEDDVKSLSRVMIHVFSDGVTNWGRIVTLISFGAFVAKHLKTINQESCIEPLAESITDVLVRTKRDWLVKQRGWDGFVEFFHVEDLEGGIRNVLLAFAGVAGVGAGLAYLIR
quantity_name: Ki (µM)

compound | quantity_name | scale_unit | reported_relation | numeric_readout
Cc1c(-c2c(-c3ccc(F)cc3)cn3ncnc(O[C@H](Cc4ccccc4OCC4CC4)C(=O)O)c23)ccc(OCCN2CCN(C)CC2)c1Cl (atropisomer, axis not shown; (Ra)) | Ki | µM | = | 0.0113
COc1ccccc1-c1nccc(COc2ccccc2C[C@@H](Nc2ncnn3cc(-c4ccc(F)cc4)c(-c4ccc(OCCN5CCN(C)CC5)c(Cl)c4C)c23)C(=O)O)n1 (atropisomer, axis not shown; (Ra)) | Ki | µM | = | 0.0007
Cc1c(-c2c(-c3ccc(F)cc3)cn3ncnc(N[C@H](Cc4ccccc4OCC4CC4)C(=O)O)c23)ccc(OCCN2CCN(C)CC2)c1Cl (single isomer, unassigned) [Example 7] | Ki | µM | = | 0.0777
Cc1c(-c2c(-c3ccc(F)cc3)cn3ncnc(N[C@H](Cc4ccccc4OCC4CC4)C(=O)O)c23)ccc(OCCN2CCN(C)CC2)c1Cl (single isomer, unassigned) [Example 5] | Ki | µM | > | 12
Cc1c(-c2c(-c3ccc(F)cc3)cn3ncnc(O[C@@H](Cc4ccccc4OCC4CC4)C(=O)O)c23)ccc(OCCN2CCN(C)CC2)c1Cl (atropisomer, axis not shown; (Sa)) | Ki | µM | > | 12
